Every entry's value here was drawn from patent US20240174727A1.

Measured cGMP Assay (EC50, pM) w/BSA, listed per entry for reference.
# system.tested: T1, rat NPRA (rat, UniProt P18910 29-1057)
# T1 sequence (looked up): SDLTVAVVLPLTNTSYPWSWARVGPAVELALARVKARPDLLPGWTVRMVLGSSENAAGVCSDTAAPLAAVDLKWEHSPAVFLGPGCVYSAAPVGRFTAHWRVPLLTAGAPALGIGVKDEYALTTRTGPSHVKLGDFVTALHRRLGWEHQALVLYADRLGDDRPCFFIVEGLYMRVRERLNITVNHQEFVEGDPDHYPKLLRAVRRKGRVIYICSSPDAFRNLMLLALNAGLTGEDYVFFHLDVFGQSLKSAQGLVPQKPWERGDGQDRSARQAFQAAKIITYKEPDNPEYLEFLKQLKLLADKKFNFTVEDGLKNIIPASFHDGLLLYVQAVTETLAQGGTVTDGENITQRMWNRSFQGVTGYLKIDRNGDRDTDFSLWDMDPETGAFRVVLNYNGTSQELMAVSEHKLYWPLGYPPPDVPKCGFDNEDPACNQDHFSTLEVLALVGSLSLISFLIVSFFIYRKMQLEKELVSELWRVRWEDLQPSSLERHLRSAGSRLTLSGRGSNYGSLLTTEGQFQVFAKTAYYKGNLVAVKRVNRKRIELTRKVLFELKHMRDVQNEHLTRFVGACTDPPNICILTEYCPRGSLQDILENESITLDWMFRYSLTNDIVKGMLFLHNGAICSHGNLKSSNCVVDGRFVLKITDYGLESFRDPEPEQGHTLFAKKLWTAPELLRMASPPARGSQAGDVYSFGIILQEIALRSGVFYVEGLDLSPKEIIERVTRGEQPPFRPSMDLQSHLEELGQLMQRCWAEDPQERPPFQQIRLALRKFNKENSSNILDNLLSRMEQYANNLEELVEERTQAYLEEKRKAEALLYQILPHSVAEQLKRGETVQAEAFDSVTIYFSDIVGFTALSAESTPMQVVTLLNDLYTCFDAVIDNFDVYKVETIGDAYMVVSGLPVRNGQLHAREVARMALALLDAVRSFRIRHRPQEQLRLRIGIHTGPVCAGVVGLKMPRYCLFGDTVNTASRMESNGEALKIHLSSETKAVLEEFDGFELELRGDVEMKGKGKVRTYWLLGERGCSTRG
# protocol.text: cell-based or functional assay
Just the number in pM, nothing appended.

Take a look at these entries with their results.
binder | cGMP Assay (EC50, pM) w/BSA
SXRRSSCFGGRIDRIGHQSGLGCPSFRHGGKSSGAPPPS (HOOC-(CH2)18-CO-(γGlu)-EKEKEKG-PEG12-S-4Pal-RRSS[CFGGRIDRIGHQSGLGC]PSFRHGGKSSGAPPPS-NH2; thioacetal linkage between the bracketed Cys) [Example 82] | 836000
EKXRSSCFGKRIDRIGHQSGLGCPSFRHGGKSSGAPPPS (HOOC-(CH2)18-CO-(γGlu)-EKEKEKG-(AEEA)6-EK-βAla-RSS[CFGKRIDRIGHQSGLGC]PSFRHGGKSSGAPPPS-NH2; thioacetal linkage between the bracketed Cys) [Example 89] | 819000

Kindly review the next binder as well.
Item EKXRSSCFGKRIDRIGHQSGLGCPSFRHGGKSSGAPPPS (HOOC-(CH2)18-CO-(γGlu)-EKEKEKG-PEG24-EK-βAla-RSS[CFGKRIDRIGHQSGLGC]PSFRHGGKSSGAPPPS-NH2; thioacetal linkage between the bracketed Cys) [Example 3] has what recorded cGMP Assay (EC50, pM) w/BSA?
959000
